- Tested on: epimastigote forms of T. cruzi (Y strain)
- PROTOCOL_TEXT: Antitrypanosomal assay
- Format: cell-based, Trypanosoma cruzi
- MEASUREMENT_SETUP: Trypanosoma cruzi, 96 h, read-out: Epimastigote IC50, epimastigote form of T. cruzi Y strain, 96 h at 28 °C, parasite counting; mean ± SD
- Description: Stock solutions of the synthetic compounds and kaurenoic acid (5, 10, 50, and 100 µg/mL) were prepared in dimethylsulfoxide with their final concentrations not exceeding 1.0%. […] Cell density was determined by counting the parasites in a hemocytometer chamber (Improved Double Neubauer) under a light microscope. […]
READOUT: pIC50
pIC50 (log units): -log10 of the concentration in mol/L.

Fill in the blank: the reported pIC50 of C[C@@]12CCC[C@@](C)(C(=O)O)[C@H]1CC[C@@]13C[C@@H](CC[C@H]12)[C@](C)(N=C=S)C3 is ____.
4.23

Cited source: paper PMC6259918
